Reported TGI values for the following molecules.
System: TK-10 renal
Assay: NCI tumour cell line growth inhibition, 48 h

Sample records with TGI:
molecule	endpoint-value
O=C(Nc1ccc(Cl)cc1)c1cc2c(cc1Cl)SC(NNCCO)=NS2(=O)=O	> 100 µM
NC(CCC(=O)Nc1ccc(O)cc1)C(=O)O (stereo not given)	> 100 µM
CCNCCCNc1c2ccccc2nc2ccccc12	16 µM
COc1ccc2cc(C#Cc3ccc(-n4c(/C=C/c5cc(OC)c(OC)c(OC)c5)nc5ccccc5c4=O)c(C)c3)ccc2c1	> 100 µM

We now examine a further molecule.
Query (molecule): Cc1ccc(C(=O)N/N=C(\N=Nc2cccc([N+](=O)[O-])c2)c2ccc(N(C)C)cc2)cc1 ; field requested: TGI
> 100 µM
